experiment: Tissue distribution in ICR mice (normal animals); format: in vivo; conditions: 3 h after injection
Form field: Tissue distribution, Bladder (one value per entry).

Some entries whose results are on file:
[
  {
    "molecule": "CCOc1ccc(C[C@](C)(N)C(=O)O)cc1[211At] [^211At-AAMT-O-Et-L]",
    "Tissue distribution, Bladder": "21.28 ± 15.54 %ID/g"
  },
  {
    "molecule": "COc1ccc(C[C@@](C)(N)C(=O)O)cc1[211At] [^211At-AAMT-O-Me-D]",
    "Tissue distribution, Bladder": "0.19 ± 0.11 %ID/g"
  },
  {
    "molecule": "CCCOc1ccc(C[C@](C)(N)C(=O)O)cc1[211At] [^211At-AAMT-O-Pr-L]",
    "Tissue distribution, Bladder": "5.37 ± 0.73 %ID/g"
  }
]

As a next step, examine the molecule that follows.
Please fill in: Tissue distribution, Bladder reported for COc1ccc(C[C@](C)(N)C(=O)O)cc1[211At] [^211At-AAMT-O-Me-L] = 0.10 ± 0.01 %ID/g

---

experiment: Tissue distribution in ICR mice (normal animals); type: in vivo; conditions: 1 h after injection
endpoint: Tissue distribution, Cecum (%ID/g)
The response must be a number in %ID/g with no trailing unit.

Example cases with answers are listed next.
[
  {
    "compound": "COc1ccc(C[C@](C)(N)C(=O)O)cc1[211At] [^211At-AAMT-O-Me-L]",
    "outputUnit": "%ID/g",
    "reportedValue": 0.85
  },
  {
    "compound": "CCCOc1ccc(C[C@](C)(N)C(=O)O)cc1[211At] [^211At-AAMT-O-Pr-L]",
    "outputUnit": "%ID/g",
    "reportedValue": 1.49
  },
  {
    "compound": "COc1ccc(C[C@@](C)(N)C(=O)O)cc1[211At] [^211At-AAMT-O-Me-D]",
    "outputUnit": "%ID/g",
    "reportedValue": 0.47
  }
]

Turning now to a further record.
get_value(item= CCOc1ccc(C[C@](C)(N)C(=O)O)cc1[211At] [^211At-AAMT-O-Et-L] , readout=Tissue distribution, Cecum) returns 0.68

---

Catalogue of Tissue distribution, Blood readings, one per entry.
Assay: Tissue distribution in ICR mice (normal animals)
Assay type: in vivo
Settings: 1 h after injection
From the text: ICR mice (male, 5 weeks old) were purchased from Japan SLC (Shizuoka, Japan) and acclimated for one week prior to use. The doses in the distribution experiments were as follows: ^211At-AAMT-O-Me-L (0.407 ± 0.005 MBq/mouse, 31.64 ± 0.76 g, n = 6), ^211At-AAMT-O-Me-D (0.351 ± 0.004 MBq/mouse, 31.44 ± 0.94 g, n = 6), ^211At-AAMT-O-Et-L (0.685 ± 0.010 MBq/mouse, 24.14 ± 3.31 g, n = 6), ^211At-AAMT-O-Pr-L (1.09 ± 0.06 MBq/mouse, 26.33 ± 0.39 g, n = 6)
// unit must come after the numeric part

[
  {
    "molecule": "COc1ccc(C[C@](C)(N)C(=O)O)cc1[211At] [^211At-AAMT-O-Me-L]",
    "endpoint": "Tissue distribution, Blood",
    "reportedValue": "1.57 ± 0.10 %ID/g"
  },
  {
    "molecule": "CCCOc1ccc(C[C@](C)(N)C(=O)O)cc1[211At] [^211At-AAMT-O-Pr-L]",
    "endpoint": "Tissue distribution, Blood",
    "reportedValue": "1.77 ± 0.15 %ID/g"
  },
  {
    "molecule": "CCOc1ccc(C[C@](C)(N)C(=O)O)cc1[211At] [^211At-AAMT-O-Et-L]",
    "endpoint": "Tissue distribution, Blood",
    "reportedValue": "2.03 ± 0.61 %ID/g"
  }
]

Here is another molecule to look at.
Short answer for COc1ccc(C[C@@](C)(N)C(=O)O)cc1[211At] [^211At-AAMT-O-Me-D] : Tissue distribution, Blood was 1.90 ± 0.57 %ID/g

These entries and their values trace back to paper PMC11594329.
